target entity: WDR5^22–334 (human, UniProt P61964 22-334)
protocol: ITC; WDR5 (50 µM) in the cell, peptide or protein (750 µM) in the syringe, 20 injections; 25 °C; 20 mM Tris-HCl pH 7.5, 150 mM NaCl; single-site model; iTC-200
condition description: both partners purified
property label: Kd (µM)
Numbers only, in µM.

Prompt: Item SSRRSSHYPAAVQSQAAAERGASATAKSRAISI (PTENα (PTEN-L), the N-terminally extended variant of human PTEN (576 residues); residues 116–148 of its N-terminal extension; also called synthetic PTENα-NTE^116–148 peptide; source: synthetic peptide) [PTENα-NTE^116–148 peptide] has what recorded Kd?
Completion: 3.8
